Data provenance is patent EP2649989B1.

assay: Solubility in water according to the Higuchi-Connor method; format: physicochemical; details: thermodynamic from solid; excess amount added to 10 ml of water, shaken on mechanical shaker for 48 hours, filtered, dissolved drug content; read-out: Indomethacin Solubility in water
quantity_measured: solubility at 48 h (µg/mL)
Numbers only, in µg/mL.

Task: Item under review: `COc1ccc2c(c1)c(CC(=O)O)c(C)n2C(=O)c1ccc(Cl)cc1` . Reported solubility at 48 h?
Output: 152
